- System: Mus musculus
- measurement protocol: Effective dose required to reduce the parasitemia in mice when compound administered with SSV after 3 day postinfection
- Format: functional
measured endpoint: ED90

Recorded ED90, per entry:
| compound | ED90 |
| --- | --- |
| c1ccc(C2CCC3(CC2)OOC2(O3)C3CC4CC(C3)CC2C4)cc1 (stereo not given) | 5.7 (mg/kg)/day |
| CO[C@H]1O[C@@H]2O[C@@]3(C)CC[C@H]4[C@H](C)CC[C@@H]([C@H]1C)[C@@]24OO3 | 6.2 (mg/kg)/day |
| O=C1CCC2(CC1)OOC1(O2)C2CC3CC(C2)CC1C3 (stereo not given) | 12 (mg/kg)/day |
| C[C@H]1[C@H](OC(=O)CCC(=O)O)O[C@@H]2O[C@@]3(C)CC[C@H]4[C@H](C)CC[C@@H]1[C@@]24OO3 [ARTESUNATE] | 21 (mg/kg)/day |

Now consider a different compound.
stdin: Provide ED90, system Mus musculus, entry CCN(CC)CCCC(C)Nc1ccnc2cc(Cl)ccc12 (stereo not given) [CHLOROQUINE]
stdout: 4.2 (mg/kg)/day

* * *

- Organism: Mus musculus
- measurement protocol: Effective dose required to reduce the parasitemia in mice by suppressive test after 4 day postinfection
- Format: functional
The reader will find reported ED90 values listed item by item below.

| compound | ED90 |
| --- | --- |
| O=C1CCC2(CC1)OOC1(O2)C2CC3CC(C2)CC1C3 (centres undefined) | 6.1 (mg/kg)/day |
| C[C@H]1[C@H](OC(=O)CCC(=O)O)O[C@@H]2O[C@@]3(C)CC[C@H]4[C@H](C)CC[C@@H]1[C@@]24OO3 [ARTESUNATE] | 13 (mg/kg)/day |
| c1ccc(C2CCC3(CC2)OOC2(O3)C3CC4CC(C3)CC2C4)cc1 (centres undefined) | 2.6 (mg/kg)/day |

Now consider a different compound.
stdin: Retrieve ED90 measured for CCOC(=O)N1CCC2(CC1)OOC1(O2)C2CC3CC(C2)CC1C3 (centres undefined) and print it.
stdout: 2 (mg/kg)/day

* * *

The reader will find reported bioavailability values listed item by item below.
- measurement protocol: Oral bioavailability (dose 50 mg/kg)
- condition: rat, in vivo
The response must be a number in % with no trailing unit.

| compound | assay value |
| --- | --- |
| CO[C@H]1O[C@@H]2O[C@@]3(C)CC[C@H]4[C@H](C)CC[C@@H]([C@H]1C)[C@@]24OO3 | 1.4 |

Now consider a different compound.
stdin: Retrieve bioavailability measured for CCOC(=O)N1CCC2(CC1)OOC1(O2)C2CC3CC(C2)CC1C3 (configuration not stated) and print it.
stdout: 1.5

* * *

- System: Mus musculus
- measurement protocol: Antimalarial activity (10 mg/kg, peroral) given 1 day post infection of mice (Mus musculus) with Plasmodium berghei is its ability to reduce parasitaemia on day 3 post infection
- Assay type: functional
measured endpoint: Reduction
Answer shape: numeric part, then the unit.

Recorded Reduction, per entry:
| compound | Reduction |
| --- | --- |
| C[C@H]1[C@H](OC(=O)CCC(=O)O)O[C@@H]2O[C@@]3(C)CC[C@H]4[C@H](C)CC[C@@H]1[C@@]24OO3 [ARTESUNATE] | 65% |
| C1CC2(CCO1)OOC1(O2)C2CC3CC(C2)CC1C3 (centres undefined) | 35% |
| OC1CCC2(CC1)OOC1(O2)C2CC3CC(C2)CC1C3 (centres undefined) | 79% |
| CC1(C)COC2(CCC3(CC2)OOC2(O3)C3CCCC2CCC3)OC1 (centres undefined) | 1% |
| CC1(C)CC(C)(C)CC2(C1)OOC1(O2)C2CC3CC(C2)CC1C3 (centres undefined) | 88% |

stdin: Retrieve Reduction measured for CC1(C)CCC2(CC1)OOC1(O2)C2CC3CC(C2)CC1C3 (centres undefined) and print it.
stdout: 80%

stdin: Retrieve Reduction measured for CC(C)(C)C1CCC2(CC1)OOC1(O2)C2CC3CC(C2)CC1C3 (centres undefined) and print it.
stdout: 0%

stdin: Retrieve Reduction measured for "CC1(C)COC2(CCC3(CC2)OOC2(CC(C)(C)CC(C)(C)C2)O3)OC1" and print it.
stdout: 0%

stdin: Retrieve Reduction measured for c1ccc(CC2(Cc3ccccc3)OOC3(O2)C2CC4CC(C2)CC3C4)cc1 (centres undefined) and print it.
stdout: 88%

* * *

- measurement protocol: Bioavailability obtained after oral administration of 30 mg/kg (n=1)
- Assay type: ADME, organism-based, Mus musculus
- condition: in vivo
measured endpoint: bioavailability (%)
The response must be a number in % with no trailing unit.

stdin: Retrieve bioavailability measured for c1ccc(C2CCC3(CC2)OOC2(O3)C3CC4CC(C3)CC2C4)cc1 (stereo unspecified) and print it.
stdout: 9.5

* * *

- measurement protocol: Volume distribution after intravenous administration of 20 mg/kg
- condition: rat, in vivo, read-out: Vd
measured endpoint: Vd (L/kg)
The response must be a number in L/kg with no trailing unit.

stdin: Retrieve Vd measured for C[C@H]1[C@@H](O)O[C@@H]2O[C@@]3(C)CC[C@H]4[C@H](C)CC[C@@H]1[C@@]24OO3 [ARTENIMOL] and print it.
stdout: 3

* * *

- Tested on: Mus musculus
- measurement protocol: Antimalarial activity (10 mg/kg, peroral) given 1 day post infection of mice (Mus musculus) with Plasmodium berghei is its ability to reduce parasitaemia on day 3 post infection
- Type: functional
Each record is given TRUE if its reported Reduction is strictly below 90%. Records at or above 90% are given FALSE.

Completed entries (count: 4):
| molecule | category |
| --- | --- |
| O=S1(=O)CCC2(CC1)OOC1(O2)C2CC3CC(C2)CC1C3 (stereo not given) | TRUE |
| c1ccc(C2(c3ccccc3)CCC3(CC2)OOC2(O3)C3CC4CC(C3)CC2C4)cc1 (stereo not given) | TRUE |
| Fc1ccc(C2(c3ccc(F)cc3)OOC3(CCC(c4ccccc4)CC3)O2)cc1 (stereo not given) | TRUE |
| CC(C)C1CCC2(CC1)OOC1(O2)C2CC3CC(C2)CC1C3 (stereo not given) | FALSE |

stdin: Input "CO[C@H]1O[C@@H]2O[C@@]3(C)CC[C@H]4[C@H](C)CC[C@@H]([C@H]1C)[C@@]24OO3" ; condition: Reduction strictly below 90%. Does it hold?
stdout: FALSE

stdin: Input O=C1CCC2(CC1)OOC1(O2)C2CC3CC(C2)CC1C3 (stereo not given) ; condition: Reduction strictly below 90%. Does it hold?
stdout: FALSE

stdin: Input c1ccc(C2CCC3(CC2)OOC2(O3)C3CCCC2CCC3)cc1 (stereo not given) ; condition: Reduction strictly below 90%. Does it hold?
stdout: TRUE

stdin: Input CCOC(=O)N1CCC2(CC1)OOC1(O2)C2CC3CC(C2)CC1C3 (stereo not given) ; condition: Reduction strictly below 90%. Does it hold?
stdout: FALSE

stdin: Input c1ccc(C2(c3ccccc3)OOC3(O2)C2CC4CC(C2)CC3C4)cc1 (stereo not given) ; condition: Reduction strictly below 90%. Does it hold?
stdout: TRUE

stdin: Input C1CCC2(CC1)OOC1(O2)C2CC3CC(C2)CC1C3 (stereo not given) ; condition: Reduction strictly below 90%. Does it hold?
stdout: FALSE

* * *

- measurement protocol: Plasma clearance after intravenous administration of 30 mg/kg
- Assay type: ADME, organism-based, Mus musculus
- Design: dose 30 mg/kg, route intravenous
measured endpoint: clearance (mL/min/kg)
The response must be a number in mL/min/kg with no trailing unit.

stdin: Retrieve clearance measured for CC1(C)COC2(CCC3(CC2)OOC2(O3)C3CC4CC(C3)CC2C4)OC1 (stereo unspecified) and print it.
stdout: 83

* * *

- measurement protocol: Bioavailability obtained after oral administration of 80 mg/kg
- Type: ADME, organism-based, Mus musculus
- condition: in vivo
measured endpoint: bioavailability (%)
The response must be a number in % with no trailing unit.

stdin: Retrieve bioavailability measured for CC1(C)COC2(CCC3(CC2)OOC2(O3)C3CC4CC(C3)CC2C4)OC1 (stereo unspecified) and print it.
stdout: 0.73

* * *

- measurement protocol: Plasma clearance after intravenous administration of 10 mg/kg
- condition: rat
measured endpoint: clearance

| compound | clearance |
| --- | --- |
| c1ccc(C2CCC3(CC2)OOC2(O3)C3CC4CC(C3)CC2C4)cc1 (stereo not drawn) | 33 mL/min/kg |
| CCOC(=O)N1CCC2(CC1)OOC1(O2)C2CC3CC(C2)CC1C3 (stereo not drawn) | 47 mL/min/kg |

Now consider a different compound.
stdin: Retrieve clearance measured for "CO[C@H]1O[C@@H]2O[C@@]3(C)CC[C@H]4[C@H](C)CC[C@@H]([C@H]1C)[C@@]24OO3" and print it.
stdout: 114 mL/min/kg

* * *

The reader will find reported Survival values listed item by item below.
- Tested on: Mus musculus
- measurement protocol: Survival of mice to 30-day postinfection with Plasmodium berghei upon 10 mg/kg upon subcutaneous dose was determined
- Type: functional
The response must be a number in days with no trailing unit.

Recorded Survival, per entry:
| compound | test target | Survival, days |
| --- | --- | --- |
| CC1(C)COC2(CCC3(CC2)OOC2(O3)C3CC4CC(C3)CC2C4)OC1 (centres undefined) | Mus musculus | 18 |
| CC1(C)COC2(CCC3(CC2)OOC2(O3)C3CCCC2CCC3)OC1 (centres undefined) | Mus musculus | 5.3 |
| c1ccc(CC2(Cc3ccccc3)OOC3(O2)C2CC4CC(C2)CC3C4)cc1 (centres undefined) | Mus musculus | 8 |
| O=S1(=O)CCC2(CC1)OOC1(O2)C2CC3CC(C2)CC1C3 (centres undefined) | Mus musculus | 7.3 |

stdin: Retrieve Survival measured for c1ccc(C2(c3ccccc3)OOC3(O2)C2CC4CC(C2)CC3C4)cc1 (centres undefined) and print it.
stdout: 7

stdin: Retrieve Survival measured for "CC1(C)COC2(CCC3(CC2)OOC2(CC(C)(C)CC(C)(C)C2)O3)OC1" and print it.
stdout: 5.7

stdin: Retrieve Survival measured for Fc1ccc(C2(c3ccc(F)cc3)OOC3(CCC(c4ccccc4)CC3)O2)cc1 (centres undefined) and print it.
stdout: 5.7

stdin: Retrieve Survival measured for O=C1CCC2(CC1)OOC1(O2)C2CC3CC(C2)CC1C3 (centres undefined) and print it.
stdout: 8.6

stdin: Retrieve Survival measured for CCOC(=O)N1CCC2(CC1)OOC1(O2)C2CC3CC(C2)CC1C3 (centres undefined) and print it.
stdout: 8.9
